Each recorded value in this set is attributed to ChEMBL document CHEMBL1201862.

- target: Streptokinase A (Streptococcus pyogenes serotype M1)
- Sequence (P10520 whole entry): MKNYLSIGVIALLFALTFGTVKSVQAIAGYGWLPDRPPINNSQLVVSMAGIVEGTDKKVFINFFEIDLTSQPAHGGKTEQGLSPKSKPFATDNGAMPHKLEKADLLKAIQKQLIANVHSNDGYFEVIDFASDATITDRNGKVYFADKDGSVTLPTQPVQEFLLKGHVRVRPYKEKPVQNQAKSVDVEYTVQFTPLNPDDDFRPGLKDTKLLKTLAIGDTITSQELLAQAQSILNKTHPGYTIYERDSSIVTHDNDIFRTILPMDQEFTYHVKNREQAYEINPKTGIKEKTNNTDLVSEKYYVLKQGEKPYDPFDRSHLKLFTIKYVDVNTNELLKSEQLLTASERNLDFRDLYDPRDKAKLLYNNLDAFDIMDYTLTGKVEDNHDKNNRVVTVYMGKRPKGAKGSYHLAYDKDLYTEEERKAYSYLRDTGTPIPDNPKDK
- measurementNotes: viability-normalized secreted streptokinase activity reduction – plasminogen activation absorbance, OD405, dose response (AID 1914);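 also: secreted streptokinase activity via plasminogen activation per viability signal from cell pellet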
- Type: functional, Streptococcus pyogenes M1 GAS
Active and inactive are the calls of the source.
The reader will find reported EC50 values listed item by item below.

COc1ccc(CN(C)S(=O)(=O)c2ccc3c(c2)OCCO3)cc1
> 150 µM (not active)
O=C1C(NS(=O)(=O)c2cccs2)=C(N2CCN(c3cccc(C(F)(F)F)c3)CC2)C(=O)c2ccccc21
> 150 µM (not active)
O=S(=O)(Nc1ccc(N=Nc2ccc(O)c3ccccc23)cc1)c1ccccc1
18.7 µM (active)
Fc1ccc(Br)cc1C1C=C(c2ccc(Br)s2)Nc2ncnn21 (stereo not given)
> 150 µM (not active)

Quick one: EC50 for C=C(C)COc1ccc(-c2n[nH]cc2Oc2ccc(OC)cc2)c(O)c1 ?
37.4 µM (active)

----------
Reported IC50 by item:
- target: Nucleotide-binding oligomerization domain-containing protein 1 (Homo sapiens, UniProt Q9Y239)
- Sequence (Q9Y239 whole entry, the tested form may be a part): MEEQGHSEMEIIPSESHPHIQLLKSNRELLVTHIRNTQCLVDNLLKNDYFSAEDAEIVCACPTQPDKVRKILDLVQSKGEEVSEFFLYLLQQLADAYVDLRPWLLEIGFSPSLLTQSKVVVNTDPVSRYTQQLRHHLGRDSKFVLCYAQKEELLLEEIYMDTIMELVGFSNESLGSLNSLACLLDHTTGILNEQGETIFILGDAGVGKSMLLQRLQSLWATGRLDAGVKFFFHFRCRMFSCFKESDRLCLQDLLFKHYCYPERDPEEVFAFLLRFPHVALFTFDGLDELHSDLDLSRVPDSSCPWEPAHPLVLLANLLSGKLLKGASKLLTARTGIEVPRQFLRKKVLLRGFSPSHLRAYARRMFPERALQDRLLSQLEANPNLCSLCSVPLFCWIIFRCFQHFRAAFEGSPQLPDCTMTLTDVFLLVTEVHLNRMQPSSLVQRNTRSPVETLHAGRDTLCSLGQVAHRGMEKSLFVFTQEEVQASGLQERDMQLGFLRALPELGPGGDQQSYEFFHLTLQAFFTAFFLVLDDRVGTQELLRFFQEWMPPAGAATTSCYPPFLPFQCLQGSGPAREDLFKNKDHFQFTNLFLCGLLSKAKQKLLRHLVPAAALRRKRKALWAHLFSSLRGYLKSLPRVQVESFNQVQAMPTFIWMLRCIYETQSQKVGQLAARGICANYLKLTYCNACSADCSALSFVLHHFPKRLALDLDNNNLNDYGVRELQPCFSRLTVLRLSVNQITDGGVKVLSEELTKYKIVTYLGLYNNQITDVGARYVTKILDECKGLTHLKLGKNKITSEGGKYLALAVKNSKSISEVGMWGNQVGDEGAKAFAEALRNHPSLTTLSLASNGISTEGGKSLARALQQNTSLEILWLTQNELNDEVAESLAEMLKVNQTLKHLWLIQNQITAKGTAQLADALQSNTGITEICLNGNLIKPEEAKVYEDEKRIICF
- measurementNotes: blockers of NOD1 pathway activity – revised, SAR follow-up (AID 2333)
- Assay type: functional
Active and inactive are the calls of the source.

O=C(Nc1sc2c(c1C(=O)O)CCCC2)c1ccc(Br)cc1
770 nM (active)

Param item = c1ccc(CNc2ncnc3scc(-c4cccs4)c23)nc1 ; retrieve measured IC50.
2690 nM (active)

Request: CC1CCc2c(sc(NC(=O)c3ccc(Br)cc3)c2C(=O)O)C1 (centres undefined)
375 nM (active)

Cool, now COc1ccc(F)c(-c2nc(CN3CCN(c4ncnc5ccccc45)CC3)c(C)o2)c1
3930 nM (active)

----------
- target: Short transient receptor potential channel 4 (Mus musculus, UniProt Q9QUQ5)
- Sequence (Q9QUQ5 whole entry): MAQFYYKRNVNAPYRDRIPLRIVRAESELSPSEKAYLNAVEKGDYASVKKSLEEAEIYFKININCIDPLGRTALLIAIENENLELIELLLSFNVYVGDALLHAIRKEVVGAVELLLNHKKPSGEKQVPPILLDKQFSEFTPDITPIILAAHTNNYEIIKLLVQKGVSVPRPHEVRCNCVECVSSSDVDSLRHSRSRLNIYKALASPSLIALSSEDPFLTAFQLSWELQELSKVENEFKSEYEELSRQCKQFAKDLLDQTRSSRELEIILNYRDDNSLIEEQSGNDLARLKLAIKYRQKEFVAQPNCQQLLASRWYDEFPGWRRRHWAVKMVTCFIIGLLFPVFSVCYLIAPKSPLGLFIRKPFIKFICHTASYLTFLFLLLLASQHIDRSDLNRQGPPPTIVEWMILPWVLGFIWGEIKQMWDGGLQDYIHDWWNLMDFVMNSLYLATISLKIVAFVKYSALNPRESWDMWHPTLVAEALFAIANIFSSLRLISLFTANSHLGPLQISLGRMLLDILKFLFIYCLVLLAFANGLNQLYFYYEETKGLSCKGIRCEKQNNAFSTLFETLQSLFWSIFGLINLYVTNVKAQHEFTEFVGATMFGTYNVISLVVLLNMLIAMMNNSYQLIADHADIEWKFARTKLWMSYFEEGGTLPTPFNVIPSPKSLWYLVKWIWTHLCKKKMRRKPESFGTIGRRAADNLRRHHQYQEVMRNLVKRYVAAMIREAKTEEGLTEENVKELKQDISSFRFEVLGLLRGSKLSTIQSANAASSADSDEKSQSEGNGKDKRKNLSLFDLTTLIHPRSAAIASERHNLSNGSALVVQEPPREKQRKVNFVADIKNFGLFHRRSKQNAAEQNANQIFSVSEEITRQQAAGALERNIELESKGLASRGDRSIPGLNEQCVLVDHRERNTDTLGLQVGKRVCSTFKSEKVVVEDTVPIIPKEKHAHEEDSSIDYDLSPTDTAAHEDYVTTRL
- measurementNotes: calcium entry via TRPC4 opening agents – cell-based, HEK293 TRPC4/mu-opioid, Fluo-4 calcium, dose response (AID 434937)
- Assay type: functional
The source made the active and inactive calls.
readoutKind: EC50

CC1CN(c2ccc([N+](=O)[O-])c3cccnc23)CC(C)N1 (stereo unspecified)
0.335 µM (active)
Cc1cc(OCCCCn2ccnc2)cc(C)c1Cl
5.31 µM (active)

Quick check: EC50 of CCOC(=O)C1(Cc2cccc(F)c2)CCN(Cc2cnn(CC)c2)CC1 ?
0.668 µM (active)

Next entry: O=c1c(Cc2ccccc2)c(O)ccn1CCc1c[nH]cn1
3.76 µM (active)

Entry to check: O=C(C1CCCN(Cc2ccncc2)C1)N1CCc2ccccc2C1 (stereo unspecified)
0.188 µM (active)

Here is the next molecule: CCN1CCN(c2ccc(S(=O)(=O)N3CCOCC3)cc2NC(=O)c2ccccc2OC(F)F)CC1
0.299 µM (active)

----------
- measurementNotes: Luminescence Cell-Based Dose Response HTS to Identify Inhibitors of 5'UTR Stem-Loop Driven Prion Protein mRNA Translation in H4 Neuroglioblastoma Cells. [Related pubchem assays: 1827 (Project Summary), 1813 (Primary HTS)]
- Format: functional
Activity calls are given as the source filed them.
Here, each record is paired with measured EC50 data.

CNc1ccc2oc(C[C@H]3O[C@@]4(CC[C@H]3C)O[C@H]([C@H](C)C(=O)c3ccc[nH]3)[C@H](C)C[C@H]4C)nc2c1C(=O)O
0.267 µM (active)
CC(C)N1CCc2c(sc(NC(=O)c3ccc([N+](=O)[O-])o3)c2C(N)=O)C1
< 0.1 µM (active)
Cc1cc(OCCCCn2ccnc2)cc(C)c1Cl
> 120 µM (not active)
c1ccc(-c2cccc(-c3ccccn3)n2)nc1
< 0.1 µM (active)

Reported EC50 for Cc1cccc(/C=C/C(=O)c2cc(Br)ccc(=O)c2O)c1 : what is it?
> 120 µM (not active)

And the next one, Cc1ccc(N(CC(=O)NCCSc2nc3ccccc3s2)S(=O)(=O)c2ccccc2)c(C)c1 ?
> 120 µM (not active)

Same question for O=C(C1=C(O)C(=O)N(c2nccs2)C1c1ccccc1)c1ccc2c(c1)OCCO2 (centres undefined) please.
< 0.1 µM (active)

Now consider CN(C)c1ccc(N=Nc2ccc(C(=O)O)cc2)cc1 and answer again.
11.8 µM (active)

Also check C=C(C)CN=C(S)NNC(=O)CCn1c2ccc(Cl)cc2c2cc(Cl)ccc21
> 120 µM (not active)
